- Tgt: T1, SARS-CoV-2 RBD-mFc (SARS-CoV-2, UniProt P0DTC2 319-541)
- T1 construct: range 319-541
- Measurement Protocol: Octet QKe BLI, 1:1 global fit

Binder | kon, M⁻¹ s⁻¹
SA3827 (antibody, V domains shown) VH: QVQLVESGGTLVQPGRSLRLSCAASGFTFSSYAMHWVRQAPGKGLEWVAVISYDGSNKYYADSVKGRFTISRDNSKNTLYLQMNSLRAEDTAVYYCARRGHYYDSSGFLYWGQGTLVTVSS VL: DIQMTQSPSSLSASVGDRVTITCRASQSISTYLSWYQQKPGKAPKLLIYAASNLQSGVPSRFSASGSGTDFTLTISSLQPEDFATYYCQQSYNTPRTFGQGTKVEIK | 383000
SA4050 (antibody, V domains shown) VH: QVQLVESGAEVKKPGASVKVSCKASGYTFTGYFIHWVRQAPGQGLEWMGWINPNSGGTNYAQKFQGRVTMTRDTSISTAYMELSRLRSDDTAVYYCARVPHLSGYYYEGVLGYFDYWGQGTLVTVSS VL: QSALTQPASVSGSPGQSITISCTGTSIDIGSYNFVSWYQRHPGKAPRLLIYDVSDRPSGVSNRFSGSKSANTASLTISGLQAEDEADYYCSSYTSSSLWVFGGGTKLTVL | 503000
SA3856 (antibody, V domains shown) VH: QMQLVESGGGLIQPGGSLRLSCAASGFTVTSAYMSWVRQAPGKGLEWVSIIYGGGSTYYADSVKGRFTISRDNSKNTLYLQMNSLRAEDTAVYYCTGPYPGRYDYWGRGTLVTVSS VL: DIQMTQSPSSLSASVGDRVIITCRASQDIRTSLAWFQQRLGEAPRSLIYDASSLQNGVPSKFRGSGSGTDFTLTISSLQPEDFATYYCQQYKTVPLTFGGGTKVEIK | 484000

Hello, the source for this data is patent KR20220054080A, in case you need it.
